Give measured normalized growth for each item. Keep answers brief.
# test.details: chemical genetic growth profiling, strain panel (AID 1159580);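 also: tested at 20 µM; growth read once vehicle control cultures reached saturation at 30 °C; 1 = growth at the plate median or of vehicle wells; lower values mean less growth of the strain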
# experimental.setup: S. cerevisiae deletion strains, growth OD, locus YPL256C, strain CLN2, hits give low values
The whole screen tested about 5,500 compounds, of which about 2,000 (36%) were called active. Roughly 18% stayed inconclusive and do not appear here. The list shows a part of the results.
Reply: number alone, nothing else.

Prompt: For the molecule shown here, CC1=CCc2c(cc3oc(C)cc(=O)c3c2O)OC1 , give the reported normalized growth.
Response: 0.99

Prompt: # repeat for OC1C(O)C(O)C(O)C(O)C1O (stereo not given)
Response: 0.961

Prompt: Query CC(=O)O[C@@H]1CC2C(C)(C)C(=O)CC[C@]2(C)C2CC[C@@]3(C)[C@H](c4ccoc4)OC(=O)C4OC43[C@@]21C (stereo not given in full) next
Response: 1.01

Prompt: Now try CCC(/C=C/[C@@H](C)[C@H]1CCC2C3CC=C4C[C@@H](O)CC[C@]4(C)C3CC[C@@]21C)C(C)C (stereo not given in full) .
Response: 0.962

Prompt: // query: CNCCC=C1c2ccccc2CCc2ccccc21
Response: 0.962
